The measurements presented in this section are drawn from ChEMBL document CHEMBL2169798.

test: Blood brain barrier permeability of the compound at pH 7.4 by PAMPA; type: ADME
readoutType: permeability (×10⁻⁶ cm/s)
Record the value in ×10⁻⁶ cm/s, omitting the unit from your answer.

Reported permeability, molecule `CCN1CCC[C@@H]1CNC(=O)c1ccc2c(c1)NC(=O)/C(=C/c1ccccc1F)S2` : ____
233

----------
target: Glucose-6-phosphate 1-dehydrogenase (Plasmodium falciparum, UniProt Q25856); experiment: Inhibition of Plasmodium falciparum glucose-6-phosphate dehydrogenase after 45 mins by orthogonal assay
readoutType: pIC50
Lab note — pIC50 values are minus log10 of concentrations in M.

Completed entries (count: 7):
{"columns": ["compound", "testedTarget", "pIC50"],
 "data": [
  ["COc1cccc(/C=C2\\Sc3ccc(C(=O)NCCN4CCCCCC4)cc3NC2=O)c1", "Glucose-6-phosphate 1-dehydrogenase (Plasmodium falciparum, UniProt Q25856)", 4.23],
  ["CCN1CCCC1CNC(=O)c1ccc2c(c1)NC(=O)/C(=C/c1ccccc1OC)S2 (stereo not given)", "Glucose-6-phosphate 1-dehydrogenase (Plasmodium falciparum, UniProt Q25856)", 4.95],
  ["O=C1Nc2cc(C(=O)NCCN3CCCCC3)ccc2S/C1=C\\c1ccccc1F", "Glucose-6-phosphate 1-dehydrogenase (Plasmodium falciparum, UniProt Q25856)", 4.62],
  ["CN(C)CCNC(=O)c1ccc2c(c1)NC(=O)/C(=C/c1cccc(Cl)c1)S2", "Glucose-6-phosphate 1-dehydrogenase (Plasmodium falciparum, UniProt Q25856)", 4.36],
  ["CCN(CC)CCNC(=O)c1ccc2c(c1)NC(=O)/C(=C/c1ccccc1)S2", "Glucose-6-phosphate 1-dehydrogenase (Plasmodium falciparum, UniProt Q25856)", 4.74],
  ["Cc1cccc(/C=C2\\Sc3ccc(C(=O)NCCN4CCCC4)cc3NC2=O)c1", "Glucose-6-phosphate 1-dehydrogenase (Plasmodium falciparum, UniProt Q25856)", 5.06],
  ["CN(C)c1ccccc1CNC(=O)c1ccc2c(c1)NC(=O)/C(=C/c1ccccc1F)S2", "Glucose-6-phosphate 1-dehydrogenase (Plasmodium falciparum, UniProt Q25856)", 4.17]
]}

// below: pIC50 requested for another compound
Reported pIC50, compound CC(C)(C)OC(=O)N1CCCC1CNC(=O)c1ccc2c(c1)NC(=O)/C(=C/c1ccccc1F)S2 (stereo not given) : ____
4.61

----------
assay: Permeability of the compound at donor pH 6.2 by PAMPA; type: ADME
readoutType: permeability (×10⁻⁶ cm/s)
Record the value in ×10⁻⁶ cm/s, omitting the unit from your answer.

Reported permeability, molecule `CCN1CCC[C@@H]1CNC(=O)c1ccc2c(c1)NC(=O)/C(=C/c1ccccc1F)S2` : ____
737

----------
target: Glucose-6-phosphate 1-dehydrogenase (Plasmodium falciparum); experiment: Inhibition of Plasmodium falciparum glucose-6-phosphate dehydrogenase after 2 hrs by resazurin/diaphorasecoupled assay
readoutType: IC50 (µM)
Record the value in µM, omitting the unit from your answer.

{"columns": ["compound", "u", "measured"],
 "data": [
  ["O=C1Nc2cc(C(=O)NCCCN3CCCC3)ccc2S/C1=C\\c1ccccc1", "µM", 9.3],
  ["O=C1Nc2cc(C(=O)NCCN3CCCC3)ccc2S/C1=C\\c1ccccc1Cl", "µM", 11.1],
  ["CCN1CCCC1CNC(=O)c1ccc2c(c1)NC(=O)/C(=C/c1ccccc1F)S2 (racemic)", "µM", 1.75],
  ["O=C1Nc2cc(C(=O)NCCN3CCCCC3)ccc2S/C1=C\\c1ccccc1F", "µM", 21.6],
  ["Cc1cccc(/C=C2\\Sc3ccc(C(=O)NCCN4CCCC4)cc3NC2=O)c1", "µM", 11.8]
]}

// below: IC50 requested for another compound
Reported IC50, compound CN1CCCC1CCNC(=O)c1ccc2c(c1)NC(=O)/C(=C/c1ccccc1F)S2 (stereo not given) : ____
22.7

----------
assay: Permeability of the compound at donor pH 5 by PAMPA; type: ADME
readoutType: permeability (×10⁻⁶ cm/s)
Record the value in ×10⁻⁶ cm/s, omitting the unit from your answer.

Reported permeability, compound `CCN1CCC[C@@H]1CNC(=O)c1ccc2c(c1)NC(=O)/C(=C/c1ccccc1F)S2` : ____
29

----------
molecular target: Glucose-6-phosphate 1-dehydrogenase (Plasmodium falciparum, UniProt Q25856); assay: Inhibition of Plasmodium falciparum glucose-6-phosphate dehydrogenase after 2 hrs by resazurin/diaphorasecoupled assay
# note: boundary value 7 µM maps to no (0); IC50 below it maps to yes (1)

Some solved entries appear below for comparison.
{"columns": ["compound", "answerLabel"],
 "data": [
  ["CCN1CCC[C@@H]1CNC(=O)c1ccc2c(c1)NC(=O)/C(=C/c1ccccc1F)S2", "yes (1)"],
  ["COc1ccc(/C=C2\\Sc3ccc(C(=O)NCCN4CCCCCC4)cc3NC2=O)cc1", "no (0)"],
  ["CCCN(CCC)CCNC(=O)c1ccc2c(c1)NC(=O)/C(=C/c1ccc(C)cc1)S2", "no (0)"]
]}

Decide: IC50 of CCN1CCCC1CNC(=O)c1ccc2c(c1)NC(=O)/C(=C/c1ccccc1C)S2 (stereo not given) strictly below 7 µM?
yes (1)

Please answer likewise for `CCN(CC)CCNC(=O)c1ccc2c(c1)NC(=O)/C(=C/c1ccccc1)S2`
no (0)

Please answer likewise for `CCN1CCC[C@H]1CNC(=O)c1ccc2c(c1)NC(=O)/C(=C/c1ccccc1F)S2`
yes (1)

----------
Biological target: Glucose-6-phosphate 1-dehydrogenase (Plasmodium falciparum)
Sequence (Q25856 whole entry): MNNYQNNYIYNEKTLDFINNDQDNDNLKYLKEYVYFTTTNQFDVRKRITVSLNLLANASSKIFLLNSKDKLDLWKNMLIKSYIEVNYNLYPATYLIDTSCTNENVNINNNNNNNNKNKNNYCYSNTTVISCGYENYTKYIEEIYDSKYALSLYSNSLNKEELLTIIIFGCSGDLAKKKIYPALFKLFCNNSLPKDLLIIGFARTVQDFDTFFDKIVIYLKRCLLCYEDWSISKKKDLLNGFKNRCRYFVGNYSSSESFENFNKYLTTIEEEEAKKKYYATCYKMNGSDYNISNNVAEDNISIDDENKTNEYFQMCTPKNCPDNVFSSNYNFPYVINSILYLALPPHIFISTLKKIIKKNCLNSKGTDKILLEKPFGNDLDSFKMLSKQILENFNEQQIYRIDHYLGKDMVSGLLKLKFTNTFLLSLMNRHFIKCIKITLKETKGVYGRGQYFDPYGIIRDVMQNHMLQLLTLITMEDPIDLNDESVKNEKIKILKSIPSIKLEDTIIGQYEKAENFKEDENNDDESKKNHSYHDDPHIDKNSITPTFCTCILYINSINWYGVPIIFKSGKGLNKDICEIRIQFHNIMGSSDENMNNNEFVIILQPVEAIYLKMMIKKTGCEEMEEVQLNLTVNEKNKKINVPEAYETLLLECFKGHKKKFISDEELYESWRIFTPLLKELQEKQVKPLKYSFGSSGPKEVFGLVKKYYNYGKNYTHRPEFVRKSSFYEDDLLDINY
Assay: Inhibition of Plasmodium falciparum glucose-6-phosphate dehydrogenase after 2 hrs by resazurin/diaphorasecoupled assay
# note: boundary value 50 µM maps to False; IC50 below it maps to True

{"columns": ["compound", "answerLabel"],
 "data": [
  ["CCN1CCCC1CNC(=O)c1ccc2c(c1)NC(=O)/C(=C/c1ccc3ccccc3c1)S2 (stereo not given)", "True"],
  ["CN(C)CCNC(=O)c1ccc2c(c1)NC(=O)/C(=C/c1cccc(Cl)c1)S2", "False"],
  ["CCN(CC)CCNC(=O)c1ccc2c(c1)NC(=O)/C(=C/c1ccccc1F)S2 (stereo in doubt; 21)", "True"]
]}

Pending compound:
Decide: IC50 of CCN1CCCC1CNC(=O)c1ccc2c(c1)NC(=O)/C(=C/c1ccccc1Cl)S2 (stereo not given) strictly below 50 µM?
True

----------
// values below are reported log10(IC50)
biological target: Glucose-6-phosphate 1-dehydrogenase (Plasmodium falciparum); test: Inhibition of Plasmodium falciparum glucose-6-phosphate dehydrogenase after 45 mins by orthogonal assay
Use the decimal logarithm of IC50 (µM).

{"columns": ["molecule", "log10(IC50)"],
 "data": [
  ["O=C1Nc2cc(C(=O)NCCN3CCCCCC3)ccc2S/C1=C\\c1ccccc1F", 1.04]
]}

// below: log10(IC50) requested for another molecule
Reported log10(IC50), molecule CN1CCCC1CCNC(=O)c1ccc2c(c1)NC(=O)/C(=C/c1ccccc1F)S2 (stereo not given) : ____
1.66

----------
test system: Hepatocyte; experiment: Toxicity against Fa2N-4 immortalized human hepatocytes; type: cell-based; conditions: read-out: LC50 (the source's name)
readoutType: CC50

Reported CC50, molecule `CCN1CCC[C@@H]1CNC(=O)c1ccc2c(c1)NC(=O)/C(=C/c1ccccc1F)S2` : ____
> 50 µM

----------
Molecular target: Glucose-6-phosphate 1-dehydrogenase (Plasmodium falciparum)
Sequence (Q25856 whole entry): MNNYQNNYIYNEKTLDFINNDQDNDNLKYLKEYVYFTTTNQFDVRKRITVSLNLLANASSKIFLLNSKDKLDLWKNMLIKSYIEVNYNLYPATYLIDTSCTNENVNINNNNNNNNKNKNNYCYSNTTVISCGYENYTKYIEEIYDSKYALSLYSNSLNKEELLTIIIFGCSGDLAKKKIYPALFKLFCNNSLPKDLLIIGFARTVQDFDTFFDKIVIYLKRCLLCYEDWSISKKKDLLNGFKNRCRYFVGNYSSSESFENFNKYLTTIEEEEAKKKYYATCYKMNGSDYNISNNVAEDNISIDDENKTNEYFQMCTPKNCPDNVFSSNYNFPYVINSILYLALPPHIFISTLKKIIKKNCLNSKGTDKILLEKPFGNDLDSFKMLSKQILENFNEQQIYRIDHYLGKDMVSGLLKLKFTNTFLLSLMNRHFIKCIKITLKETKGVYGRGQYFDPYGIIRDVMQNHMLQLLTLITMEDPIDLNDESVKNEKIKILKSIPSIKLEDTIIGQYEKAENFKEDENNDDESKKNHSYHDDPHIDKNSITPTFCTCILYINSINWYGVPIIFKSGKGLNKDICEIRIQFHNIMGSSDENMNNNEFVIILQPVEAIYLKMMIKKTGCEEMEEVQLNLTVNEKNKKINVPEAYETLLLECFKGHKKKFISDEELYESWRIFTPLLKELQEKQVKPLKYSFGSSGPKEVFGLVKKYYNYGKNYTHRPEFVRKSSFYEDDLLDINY
Experiment: Inhibition of Plasmodium falciparum glucose-6-phosphate dehydrogenase after 45 mins by orthogonal assay
pIC50: −log10 of the molar value.
readoutType: pIC50

Completed entries (count: 2):
{"columns": ["compound", "testedTarget", "pIC50"],
 "data": [
  ["COc1ccc(/C=C2\\Sc3ccc(C(=O)NCCN4CCCCCC4)cc3NC2=O)cc1", "Glucose-6-phosphate 1-dehydrogenase (Plasmodium falciparum)", "< 4.10"],
  ["O=C1Nc2cc(C(=O)NCCN3CCOCC3)ccc2S/C1=C\\c1ccccc1F", "Glucose-6-phosphate 1-dehydrogenase (Plasmodium falciparum)", "< 4.10"]
]}

Reported pIC50, compound CCN(CC)CCNC(=O)c1ccc2c(c1)NC(=O)/C(=C/c1ccccc1F)S2 (stereo in doubt; 22) : ____
5.32
